Recorded GI50 for the following compounds
System: multiple cell lines
method_summary: MTT growth inhibition, over all cell lines tested
Type: cell-based
condition_context: mean over all cell lines tested; read-out: Mean GI50 Values

# compound, GI50 [µM]
records = [
    ("COc1ccc2c(c1)c(CC(=O)OCC(=O)[O][Pt-2]13([OH])([NH2+][C@H]4CCCC[C@@H]4[NH2+]1)[n+]1cccc4cc(C)c5ccc[n+]3c5c41)c(C)n2C(=O)c1ccc(Cl)cc1 [Complex 5, [Pt^IV(5-Mephen)(SS-DACH)(ACE)(OH)]^2+]", 0.07),
    ("COc1ccc2cc([C@H](C)C(=O)[O][Pt+2]3([OH])[N]4C=CC=c5c(C)c(C)c6c(c54)[N]3C=CC=6)ccc2c1.N[C@H]1CCCC[C@@H]1N", 0.084),
    ("COc1ccc2cc([C@H](C)C(=O)[O][Pt+2]3([OH])[N]4C=CC=c5cc(C)c6c(c54)[N]3C=CC=6)ccc2c1.N[C@H]1CCCC[C@@H]1N (stereo partly drawn) [Complex 2, [Pt^IV(5-Mephen)(SS-DACH)(NPX)(OH)]^2+]", 0.49),
]

Origin of measurements: paper PMC10177380
